- System: MS2 coat protein
- experimental-details: apparent KD of MS2 coat protein; designed switch direction (-1 OFF switch, 1 ON switch): 1; higher = weaker reporter binding
- test-settings: Eterna round: R95; input ligand: microRNA oligo, concentration not stated
Grouping rule (apparent KD of MS2 coat protein): b0 (below 30 nM), b1 (30 nM to below 200 nM), b2 (200 nM or more)

Query: State the class of the sequence shown: AGUCCAGCCUGAGCUGGACAAAAGCAUGUACAUGAGGAUCACCCAUGUUCAUGUACAAGCUUUUUGCUCGUCUUAUG [salish99_208a_r3_051] (puzzle: Sensor for hsa-mir-208a)
Reply: b0

Query: State the class of the sequence shown: UUUCUACAUGAGGAUCACCCAUGUCAACAAAGUCGAGGAUAUGGGCAUAUUAUCUUAUUUCCAGAAGGCGAUUUCU [salish99_ss1_r3_092] (puzzle: Same State 1)
Reply: b1

Query: State the class of the sequence shown: AGUCCAGCCUGAGCUGGACAAAGACAUGUACAUGAGGAUCACCCAUGUCAUGUACAAGUUUUUUGCUCGUCUUAUAA (puzzle: Sensor for hsa-mir-208a)
Reply: b0

Query: State the class of the sequence shown: AACAAUCUAUCUGAGGAUAUCAUGAAAAAAACAUGAGGAUCACCCAUGUGCAGGAAAACUGCAUAUGAGAAGGCAGAUAGAUUGC [salish99_SS2_r3_004] (puzzle: Same State 2)
Reply: b2

Query: State the class of the sequence shown: UACAAUCUAUCUGAGGAUAUCAUGAAAAAAACAUGAGGAUCACCCAUGUGCAGGAAAACUGCAUAUGAGAAGGCAGAUAGAUUGC [salish99_SS2_r3_008] (puzzle: Same State 2)
Reply: b2

Query: State the class of the sequence shown: CACAAUCUAUCUGAGGAUAUCAUGAAAAAAACAUGAGGAUCACCCAUGUGCAGGAAAACUGCAUAUGAGAAGGCAGAUAGAUUGA [salish99_SS2_r3_016] (puzzle: Same State 2)
Reply: b2

Query: State the class of the sequence shown: UGUCCAGCCUGUGCUGGUCUUUAGCAUGUACAUGAGGAUCACCCAUGUCGUGUACAUGCUUUUUGCUCGUCUUUAAA [Photon Torp-05] (puzzle: Sensor for hsa-mir-208a)
Reply: b0

Query: State the class of the sequence shown: GUAAGUUUGAUGCUCGUCUCUCCGUACAAACAUGAGGAUCACCCAUGUGGUCGGGAAGUAGCCCGGCCAGUAUGGCC [Rerire] (puzzle: Sensor for hsa-mir-208a)
Reply: b0

Query: State the class of the sequence shown: GAAAAGGCGACGCAGGAUAUGAAAGGUGAAACAUGAGGAUCACCCAUGUGCUACCUUCCGAUAAAUCAGAAGGGCGACGCCAAGC [Soleusat] (puzzle: Same State 2)
Reply: b0

Query: State the class of the sequence shown: GGUCCAGCCUGAGCUGGACAAAAGCAUGUACAUGAGGAUCACCCAUGUCAUGUACAAGCUUUUUGCUCGUCAUAAUU [Mat - hsa-mir-208a - 100] (puzzle: Sensor for hsa-mir-208a)
Reply: b0

Query: State the class of the sequence shown: UUGCAGUCAGGUGAGGAUAUCAUGAGUUUAACAUGAGGAUCACCCAUGUGCUGCCUUGCAGCAUAUGAGAAGGCACCUGGCUGCU [JL-ss2-3.03 Brourd Mod] (puzzle: Same State 2)
Reply: b2

Query: State the class of the sequence shown: AUCUCUGUGCCGCAGGAUAUACCAACGGCUACAUGAGGAUCACCCAUGUCAUACCGUCGAAAGUGGUAGAAGGGUGUGCACGAGC [Reteonar] (puzzle: Same State 2)
Reply: b1

Query: State the class of the sequence shown: GUUAAACAUGAGGAUCACCCAUGUAAUAAUAUGGGAGGAUAUCAGAAAGUAUGUAUGAAAUGAGAAGGCCUAAUUG [Mat - Same State 1 - Mod of Eli - D78] (puzzle: Same State 1)
Reply: b1

Query: State the class of the sequence shown: GAAAGAGGAAGCGAGGAUAUCGUGUUGAGUACAUGAGGAUCACCCAUGUUGUAGGUAGAGGUAGGCGAGAAGGCGCAGGAGAAGA [JR_SS2_Sub0101] (puzzle: Same State 2)
Reply: b1

Query: State the class of the sequence shown: CGUCCGGCCUGAGCUGGACGGAUGCAUGUACAUGAGGAUCACCCAUGUUCAUGUGCAGGCUUUUUGCUCGUCUUGUG [salish99_mir208a_modof_jandersonlee_002] (puzzle: Sensor for hsa-mir-208a)
Reply: b0

Query: State the class of the sequence shown: GAGUGAUGGGUUAGUAACUGCUAGGAAGGACAUGAGGAUCACCCAUGUGAGUAACGAGCUUGUGCUCGUCUUAUAAG [JR_SHM208A_Sub021] (puzzle: Sensor for hsa-mir-208a)
Reply: b1

Query: State the class of the sequence shown: GUAGAAUAACUAGAGGAUAUCCGAGUGGUAACAUGAGGAUCACCCAUGUGAUGAAAGGAACAUGAGGAGAAGGCUAGAAGUAAUG [Mat - Same State 2 - Mod of JL - D81] (puzzle: Same State 2)
Reply: b1

Query: State the class of the sequence shown: AAACUACAUGAGGAUCACCCAUGUGAAAACCGCAUAGGAUAUCCGCAGCAAUAAACUGACGGAGAAGGGUGACCGG [Sobearcege] (puzzle: Same State 1)
Reply: b2

Query: State the class of the sequence shown: AAUUAUUAACAUGAGGAUCACCCAUGUAUAAGGGAGAAUAUUAUUAUUAUUAUUAACAAGCUUUUUGCUUGUCUCAU [Ribo-boogie] (puzzle: Sensor for hsa-mir-208a version 2)
Reply: b1

Query: State the class of the sequence shown: GGAGCCGACACUGAGGAUAUUCAUAUUAAAACAUGAGGAUCACCCAUGUAGGCCAGAAGGCCUUGGGAGAAGGCAGGUCGGCCCG [Bibimoar - 2] (puzzle: Same State 2)
Reply: b2
